Test system: KM12
Test: NCI tumour cell line growth inhibition, 48 h
Calls of active or inactive are those of the source. No stated cut-off is given here; in the data, active = GI50 up to about 1.1 µM and inactive = higher.

molecule	GI50
O=C(CC(=O)CC(O)(C(F)(F)F)C(F)(F)F)CC(O)(C(F)(F)F)C(F)(F)F	> 10 µM (inactive)
O=C1Sc2cc3ccccc3cc2C(=O)Sc2cc3ccccc3cc21	33 µM (inactive)
O=C(CC(O)(C(F)(F)F)C(F)(F)Cl)CC(O)(C(F)(F)F)C(F)(F)Cl (stereo unspecified)	3.09 µM (inactive)
COc1ccc(C(O)c2ccccn2)cc1 (stereo unspecified)	> 100 µM (inactive)
C/C=C1/CN2[C@@H](C3=C[C@@H]4[C@@H]5N(C3=O)c3ccccc3[C@@]53CCN5C/C(=C/C)[C@@H]4C[C@H]53)C[C@@]34c5ccccc5N5C(=O)CC=C([C@H]1C[C@H]23)[C@H]54	5.41 µM (inactive)
O=C(O)c1cnccc1-c1cc(=O)[nH]n1-c1ccccc1	9.75 µM (inactive)
